Record form. Attribute: OD450 nm. Fill in for each entry.
target: T1, cyno PD-1^ECD-hFc protein (cyno monkey, UniProt B0LAJ3 25-167); assay: ELISA, coated cyno PD-1ECD-hFc; antibody 100 nM
T1 construct: Prepared by the method for Immunogen A; also called Cyno Monkey PD-1^ECD-hFc; cyno monkey PD-1-hFc; not shown: human IgG Fc fragment (hFc) and its junction to the ECD
T1 sequence (B0LAJ3 entry or part of it limits assumed): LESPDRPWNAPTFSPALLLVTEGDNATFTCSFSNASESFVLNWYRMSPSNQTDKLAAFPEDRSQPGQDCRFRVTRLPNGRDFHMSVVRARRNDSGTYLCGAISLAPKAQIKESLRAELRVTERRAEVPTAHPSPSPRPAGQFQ

BINDER	OD450 nm
chimeric anti-PD-1 antibody 21G8F11 (antibody, V domains shown, Purified from hybridoma of Harbour H2L2 mice: human variable regions, rat constant regions) VH: EVQLLESGGGLAQPGGSLRLSCAASGFSFNTYLMHWVRQAPGKGLEWVSAISGGGGNTYYADSVKGRFTISRDNSKNTLYLQMNSLRAEDTAVYYCAKENRIPVAPFDYWGQGTLVTVSS VL: DIQMTQSPSTLSASVGDRVTITCRASQSISTWLAWYQQKPGKAPKLLIYKASSLESGVPSRFSGSGSGTEFTLTISSLQPDDLATYYCQQYNSFSWTFGQGTKVEIK	2.61

Provide the reported OD450 nm of each entry below, same order.
1. chimeric anti-PD-1 antibody 32B5C7 (antibody, V domains shown, Purified from hybridoma of Harbour H2L2 mice: human variable regions, rat constant regions) VH: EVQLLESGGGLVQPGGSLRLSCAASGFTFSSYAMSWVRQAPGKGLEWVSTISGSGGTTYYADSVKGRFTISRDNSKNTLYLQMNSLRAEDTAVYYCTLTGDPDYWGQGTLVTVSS VL: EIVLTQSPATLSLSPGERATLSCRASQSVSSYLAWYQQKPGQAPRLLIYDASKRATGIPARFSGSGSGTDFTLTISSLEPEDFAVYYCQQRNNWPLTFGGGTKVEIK
2. chimeric anti-PD-1 antibody 76G5B3 (antibody, V domains shown, Purified from hybridoma of Harbour H2L2 mice: human variable regions, rat constant regions) VH: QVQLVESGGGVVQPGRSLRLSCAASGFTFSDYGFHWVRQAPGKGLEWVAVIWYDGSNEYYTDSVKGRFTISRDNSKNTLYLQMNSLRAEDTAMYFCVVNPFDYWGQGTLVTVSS VL: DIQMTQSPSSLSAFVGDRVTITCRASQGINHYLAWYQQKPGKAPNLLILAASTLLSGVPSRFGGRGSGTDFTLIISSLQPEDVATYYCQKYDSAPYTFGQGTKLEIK

1. 1.66
2. 1.89
